Data credit: patent US11008334B2

- system.name: K-RasG12C (1-169) (Homo sapiens, UniProt P01116, G12C)
- Construct: Un-tagged recombinant K-Ras G12C (1-169) at 4 μM in Buffer A; hexahistidine (cleaved yes); made in house; host or cells: Escherichia coli BL21 (DE)
- Sequence (P01116 1-169 isoform P01116-2 G12C): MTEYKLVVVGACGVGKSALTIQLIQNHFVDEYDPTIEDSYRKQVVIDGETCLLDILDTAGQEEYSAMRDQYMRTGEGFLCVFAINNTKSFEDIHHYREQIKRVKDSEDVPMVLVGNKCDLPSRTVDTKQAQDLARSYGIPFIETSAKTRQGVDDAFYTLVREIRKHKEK
- assay.summary: Mass spectrometric screen for extent of covalent labeling
- Format: binding
- assay.setup: 24 h, 10 micromolar, 24 hrs; read-out: Percent reduction in activity of compound at 10 micromolar relative to control (no compound), 24 hrs
Each entry below carries its recorded percent covalent labeling at 10 µM.

// below: answered molecules
molecule	system.name	percent covalent labeling at 10 µM
C=CC(=O)NC1CCN(C(=O)Cn2ncc3ccccc32)CC1 [Ras-004]	K-RasG12C (1-169) (Homo sapiens, UniProt P01116, G12C)	≤ 5%
C=CS(=O)(=O)NC1CCN(C(=O)CCn2ncc3ccccc32)CC1 [Ras-010]	K-RasG12C (1-169) (Homo sapiens, UniProt P01116, G12C)	≤ 5%

Req: Consider the molecule C=CS(=O)(=O)NC1CCN(C(=O)COc2cc(C(=O)O)c(Cl)cc2Cl)CC1 [Ras-038] and give its measured percent covalent labeling at 10 µM.
Resp: ≤ 5%

Req: Another molecule: C=CS(=O)(=O)NC1CCN(C(=O)c2cc3cc(Cl)ccc3[nH]2)CC1 [JO-02-49A]
Resp: ≤ 5%

Req: Another molecule: C=CC(=O)NC1CCN(C(=O)CCn2ncc3ccccc32)CC1 [Ras-006]
Resp: ≤ 5%

Req: Another molecule: C=CS(=O)(=O)NC1CCN(C(=O)COc2ccc(Cl)cc2N(C)C)CC1 [Ras-034]
Resp: ≤ 5%
